System: Hs578T
Test: drug sensitivity score (DSS), CellTiter-Glo (DSS (AUC-based score)); higher = stronger drug effect (viability inhibition or cytotoxicity); extreme values may be limits of the assay
Settings: incubation time: 72 h
endpoint_name: drug sensitivity score

{"columns": ["compound", "measured_result"],
 "data": [
  ["CN(N=O)C(=O)N[C@@H](C=O)[C@@H](O)[C@H](O)[C@H](O)CO", 0],
  ["COc1cc2nccc(Oc3ccc(NC(=O)C4(C(=O)Nc5ccc(F)cc5)CC4)cc3)c2cc1OC [Cabozantinib]", 0],
  ["CS(=O)(=O)c1ccc(C2=C(c3ccccc3)C(=O)OC2)cc1", 0],
  ["CO[C@H]1/C=C\\C=C(/C)C(=O)NC2=CC(=O)C(NCCN(C)C)=C(C[C@@H](C)C[C@H](OC)[C@H](O)[C@@H](C)/C=C(\\C)[C@@H]1OC(N)=O)C2=O", 10.6],
  ["C[C@]12CC[C@@H]3c4ccc(O)cc4C[C@@H](CCCCCCCCC[S+]([O-])CCCC(F)(F)C(F)(F)F)[C@H]3[C@@H]1CC[C@@H]2O (stereo partly specified)", 0],
  ["Cc1ccc(C(=O)N(CCCN)[C@@H](c2oc3cc(Cl)ccc3c(=O)c2Cc2ccccc2)C(C)C)cc1", 0]
]}

====

Test system: MDA-MB-453
Assay: drug sensitivity score (DSS), CellTiter-Blue viability (DSS (AUC-based score)); higher = stronger viability inhibition; extreme values may be limits of the assay
Details: incubation time: 72 h
# drug sensitivity score annotations

{"columns": ["compound", "drug sensitivity score"],
 "data": [
  ["C=C(c1ccc(C(=O)O)cc1)c1cc2c(cc1C)C(C)(C)CCC2(C)C", 0],
  ["CCN(CCCOc1ccc2c(Nc3cc(CC(=O)Nc4cccc(F)c4)[nH]n3)ncnc2c1)CCOP(=O)(O)O", 11.8],
  ["NCC(=O)CCC(=O)O", 0],
  ["Clc1ccc(Nc2nnc(Cc3ccncc3)c3ccccc23)cc1", 0],
  ["O=P1(NCCCl)OCCCN1CCCl (centres undefined) [Ifosfamide]", 0],
  ["Cc1ccc(C(=O)N(CCCN)[C@@H](c2oc3cc(Cl)ccc3c(=O)c2Cc2ccccc2)C(C)C)cc1", 21.5],
  ["C[C@]12CC[C@@H]3c4ccc(O)cc4C[C@@H](CCCCCCCCC[S+]([O-])CCCC(F)(F)C(F)(F)F)[C@H]3[C@@H]1CC[C@@H]2O (some centres undefined)", 0],
  ["CC1(C)NC(=O)N(c2ccc([N+](=O)[O-])c(C(F)(F)F)c2)C1=O [Nilutamide]", 0],
  ["COc1cc([C@@H]2c3cc4c(cc3[C@@H](O[C@@H]3O[C@@H]5CO[C@@H](C)O[C@H]5[C@H](O)[C@H]3O)[C@H]3COC(=O)[C@H]23)OCO4)cc(OC)c1O [Etoposide]", 0]
]}

====

System: HCC1937
Conditions: 72 h
# EC50, CellTiter-Blue viability annotations

{"columns": ["molecule", "test_system", "EC50, CellTiter-Blue viability, nM"],
 "data": [
  ["Cn1c(Nc2ccc(C(F)(F)F)cc2)nc2cc(Oc3ccnc(-c4ncc(C(F)(F)F)[nH]4)c3)ccc21 [RAF265]", "HCC1937", 99.1],
  ["CN[C@@H]1C[C@H]2O[C@@](C)([C@@H]1OC)n1c3ccccc3c3c4c(c5c6ccccc6n2c5c31)C(=O)N[C@H]4O [UCN-01]", "HCC1937", 58],
  ["N[C@@H](CSC(c1ccccc1)(c1ccccc1)c1ccccc1)C(=O)O [S-trityl-L-cysteine]", "HCC1937", 715],
  ["Cc1ccc(C(=O)N(CCCN)[C@@H](c2oc3cc(Cl)ccc3c(=O)c2Cc2ccccc2)C(C)C)cc1", "HCC1937", 0.62]
]}
